Hello, the source for this data is the supplement of paper PMC9233669, in case you need it.

- Tested on: biotinyl-Leu-oxazolone
- Run description: self-aminoacylation, catalytic enhancement (BLO) (fold over background); higher = more active; k-Seq, kA / k0A0; sequences stand for … in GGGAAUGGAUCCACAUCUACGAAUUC…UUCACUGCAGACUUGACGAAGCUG
Fewer inactive variants are shown than the library holds.
So basically, the class depends on measured self-aminoacylation, and the ranges are band 1: < 1; band 2: ≥ 1 and < 2; band 3: ≥ 2

[
  {
    "Sequence entry": "AAGUUUGCUAAUAGCCGCAUG [Fam3.1 aminoacylation ribozyme variant]",
    "Label": "band 2"
  },
  {
    "Sequence entry": "CGACUUCAAACAAUCUGUCUG [Fam1A.1 aminoacylation ribozyme variant]",
    "Label": "band 1"
  },
  {
    "Sequence entry": "CGACACUUAAAGCAAUCGGUC [Fam1B.1 aminoacylation ribozyme variant]",
    "Label": "band 1"
  },
  {
    "Sequence entry": "AUUCAUGUAGGUCAUCGGGUG [Fam2.2 aminoacylation ribozyme variant]",
    "Label": "band 3"
  },
  {
    "Sequence entry": "AUUCACCUAGGUCAUCGGCUA [Fam2.2 aminoacylation ribozyme variant]",
    "Label": "band 3"
  },
  {
    "Sequence entry": "AUUCACCUAGGUAAUAGGGUG [Fam2.2 aminoacylation ribozyme variant]",
    "Label": "band 3"
  },
  {
    "Sequence entry": "CGUCACCUAGGUCAUCGGGUG [Fam2.2 aminoacylation ribozyme variant]",
    "Label": "band 3"
  },
  {
    "Sequence entry": "AAGUUUGCUAAUAGUCGAAAG [Fam3.1 aminoacylation ribozyme variant]",
    "Label": "band 2"
  },
  {
    "Sequence entry": "AUUCACCUAGGCCAUUGGGUG [Fam2.2 aminoacylation ribozyme variant]",
    "Label": "band 3"
  },
  {
    "Sequence entry": "AAGUUUGCUAUCAGUCGCAAG [Fam3.1 aminoacylation ribozyme variant]",
    "Label": "band 1"
  },
  {
    "Sequence entry": "CUACGUCAAACAUUCGGUCUG [Fam1A.1 aminoacylation ribozyme variant]",
    "Label": "band 3"
  },
  {
    "Sequence entry": "AAGUUUGCUUAUUGUCGCAAG [Fam3.1 aminoacylation ribozyme variant]",
    "Label": "band 1"
  },
  {
    "Sequence entry": "CCAAGCUUCAAGCAAUCGGUC [Fam1B.1 aminoacylation ribozyme variant]",
    "Label": "band 3"
  },
  {
    "Sequence entry": "CUACUUCAAACAGUCUGUCUG [Fam1A.1 aminoacylation ribozyme variant]",
    "Label": "band 1"
  },
  {
    "Sequence entry": "AAGUUUGCUAAUAGUCCCAUG [Fam3.1 aminoacylation ribozyme variant]",
    "Label": "band 1"
  },
  {
    "Sequence entry": "AUUACCCUCGUCAUCUAGUGA [Fam2.1 aminoacylation ribozyme variant]",
    "Label": "band 3"
  },
  {
    "Sequence entry": "AUUACGCUGGUCAUCGAGUAA [Fam2.1 aminoacylation ribozyme variant]",
    "Label": "band 2"
  },
  {
    "Sequence entry": "AAGUUUGCUGAUAAUCGCAAG [Fam3.1 aminoacylation ribozyme variant]",
    "Label": "band 1"
  },
  {
    "Sequence entry": "AUUACCGUGGUCAUCGUGUGA [Fam2.1 aminoacylation ribozyme variant]",
    "Label": "band 3"
  },
  {
    "Sequence entry": "UUACACUUCAAGCAAUCGGUC [Fam1B.1 aminoacylation ribozyme variant]",
    "Label": "band 2"
  },
  {
    "Sequence entry": "AUUCAGCCAGGUCAUCGGGUG [Fam2.2 aminoacylation ribozyme variant]",
    "Label": "band 3"
  },
  {
    "Sequence entry": "AUUACCCAGCUCAUCGAGUGA [Fam2.1 aminoacylation ribozyme variant]",
    "Label": "band 2"
  },
  {
    "Sequence entry": "AUUACCCCGUUCAUCGAGUGA [Fam2.1 aminoacylation ribozyme variant]",
    "Label": "band 3"
  },
  {
    "Sequence entry": "UCACAAUUCAAGCAAUCGGUC [Fam1B.1 aminoacylation ribozyme variant]",
    "Label": "band 1"
  },
  {
    "Sequence entry": "AAGUUUGCUAACAGUCGCAAU [Fam3.1 aminoacylation ribozyme variant]",
    "Label": "band 1"
  },
  {
    "Sequence entry": "CUACUUCAAACAAGCCGUCUG [Fam1A.1 aminoacylation ribozyme variant]",
    "Label": "band 1"
  },
  {
    "Sequence entry": "AUUCAGCUAGGUUAUCGGGUG [Fam2.2 aminoacylation ribozyme variant]",
    "Label": "band 3"
  },
  {
    "Sequence entry": "CUACUUCAAACAGUCGCUCUG [Fam1A.1 aminoacylation ribozyme variant]",
    "Label": "band 2"
  },
  {
    "Sequence entry": "AAUUUUGCUAAUAGUCGCAAC [Fam3.1 aminoacylation ribozyme variant]",
    "Label": "band 2"
  },
  {
    "Sequence entry": "AUUCACAUAGAUCAUCGGGUG [Fam2.2 aminoacylation ribozyme variant]",
    "Label": "band 3"
  },
  {
    "Sequence entry": "CUACUUCAAACAGUUGGUCUG [Fam1A.1 aminoacylation ribozyme variant]",
    "Label": "band 1"
  },
  {
    "Sequence entry": "CUUCACUUCAAGCAAUCGGUC [Fam1B.1 aminoacylation ribozyme variant]",
    "Label": "band 2"
  },
  {
    "Sequence entry": "AUUCACCUAGGUUGUCGGGUG [Fam2.2 aminoacylation ribozyme variant]",
    "Label": "band 3"
  },
  {
    "Sequence entry": "CUACUUCAAACGAUCGCUCUG [Fam1A.1 aminoacylation ribozyme variant]",
    "Label": "band 1"
  },
  {
    "Sequence entry": "AAUAUUGCUAAUAGUCGCAAG [Fam3.1 aminoacylation ribozyme variant]",
    "Label": "band 2"
  }
]

----------
- Tested on: biotinyl-Val-oxazolone
- Run description: self-aminoacylation, catalytic enhancement (BVO) (fold over background); higher = more active; k-Seq, kA / k0A0; sequences stand for … in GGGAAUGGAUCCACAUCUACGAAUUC…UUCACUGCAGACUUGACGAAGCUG
Fewer inactive variants are shown than the library holds.
Observable: self-aminoacylation

[
  {
    "Sequence entry": "AUUCACCUAGGCCAUCCGGUG [Fam2.2 aminoacylation ribozyme variant]",
    "Endpoint result": 4.6
  },
  {
    "Sequence entry": "CUACUUCAAAGUAUCGGUCUG [Fam1A.1 aminoacylation ribozyme variant]",
    "Endpoint result": 0.975
  },
  {
    "Sequence entry": "CAGUUUGCUAAUAGGCGCAAG [Fam3.1 aminoacylation ribozyme variant]",
    "Endpoint result": 1.27
  },
  {
    "Sequence entry": "CCGCACUUCAAGCAAUCGGUG [Fam1B.1 aminoacylation ribozyme variant]",
    "Endpoint result": 5.59
  },
  {
    "Sequence entry": "CUACUUCAAACAACCGGUCGG [Fam1A.1 aminoacylation ribozyme variant]",
    "Endpoint result": 1.08
  },
  {
    "Sequence entry": "AAGUCAGCUAAUAGUCGCAAG [Fam3.1 aminoacylation ribozyme variant]",
    "Endpoint result": 2
  },
  {
    "Sequence entry": "AUUACCAUGGUCAUCAAGUGA [Fam2.1 aminoacylation ribozyme variant]",
    "Endpoint result": 2.4
  },
  {
    "Sequence entry": "CCACGCUUCAAGCAAUGGGUC [Fam1B.1 aminoacylation ribozyme variant]",
    "Endpoint result": 0.656
  },
  {
    "Sequence entry": "AAGUUUCCUAAAAGUCGCAAG [Fam3.1 aminoacylation ribozyme variant]",
    "Endpoint result": 1.57
  }
]

----------
Below, each of the sequences is paired with its reported self-aminoacylation value.
- Test system: biotinyl-Trp-oxazolone
- Run description: self-aminoacylation, catalytic enhancement (BWO) (fold over background); higher = more active; k-Seq, kA / k0A0; sequences stand for … in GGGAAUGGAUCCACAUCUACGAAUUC…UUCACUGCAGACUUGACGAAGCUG
Fewer inactive variants are shown than the library holds.

[
  {
    "Sequence entry": "CCACCCCUCAAGCAAUCGGUC [Fam1B.1 aminoacylation ribozyme variant]",
    "self-aminoacylation": 1.14
  },
  {
    "Sequence entry": "UUUCACUUAGGUCAUCGGGUG [Fam2.2 aminoacylation ribozyme variant]",
    "self-aminoacylation": 6.64
  },
  {
    "Sequence entry": "AUUUCCCAGGUCAUCGAGUGA [Fam2.1 aminoacylation ribozyme variant]",
    "self-aminoacylation": 6.32
  },
  {
    "Sequence entry": "UUUCACCUAGGUCAUCGGGAG [Fam2.2 aminoacylation ribozyme variant]",
    "self-aminoacylation": 2.02
  },
  {
    "Sequence entry": "CGACUUCAAACAAUGGGUCUG [Fam1A.1 aminoacylation ribozyme variant]",
    "self-aminoacylation": 0.968
  },
  {
    "Sequence entry": "CUACUUCAAUCAACCGGUCUG [Fam1A.1 aminoacylation ribozyme variant]",
    "self-aminoacylation": 0.663
  },
  {
    "Sequence entry": "CCAUACUUCAAGCAAUCGGGC [Fam1B.1 aminoacylation ribozyme variant]",
    "self-aminoacylation": 1.15
  },
  {
    "Sequence entry": "AAGUUUGCUAAUAGUCAGAAG [Fam3.1 aminoacylation ribozyme variant]",
    "self-aminoacylation": 2.22
  },
  {
    "Sequence entry": "CAACUUCAAACAAUCGGUCCG [Fam1A.1 aminoacylation ribozyme variant]",
    "self-aminoacylation": 4.86
  },
  {
    "Sequence entry": "AUUGACCUAGGGCAUCGGGUG [Fam2.2 aminoacylation ribozyme variant]",
    "self-aminoacylation": 4.66
  },
  {
    "Sequence entry": "CCACACUUCACGCAAUCGAUC [Fam1B.1 aminoacylation ribozyme variant]",
    "self-aminoacylation": 0.618
  },
  {
    "Sequence entry": "AUACACCUGGGUCAUCGGGUG [Fam2.2 aminoacylation ribozyme variant]",
    "self-aminoacylation": 3.69
  },
  {
    "Sequence entry": "UUACUUUAAACAAUCGGUCUG [Fam1A.1 aminoacylation ribozyme variant]",
    "self-aminoacylation": 1.25
  },
  {
    "Sequence entry": "AUACUUCAAACAAUCGAUCUG [Fam1A.1 aminoacylation ribozyme variant]",
    "self-aminoacylation": 0.648
  },
  {
    "Sequence entry": "AUUACCCGGUUCAUCGAGUGA [Fam2.1 aminoacylation ribozyme variant]",
    "self-aminoacylation": 7.78
  },
  {
    "Sequence entry": "AUUACCCUGGUCAAGGAGUGA [Fam2.1 aminoacylation ribozyme variant]",
    "self-aminoacylation": 3.32
  },
  {
    "Sequence entry": "AAGUUUACUAAUAGUCGCUAG [Fam3.1 aminoacylation ribozyme variant]",
    "self-aminoacylation": 1.69
  },
  {
    "Sequence entry": "CCACUCUUCAAGCACUCGGUC [Fam1B.1 aminoacylation ribozyme variant]",
    "self-aminoacylation": 0.816
  },
  {
    "Sequence entry": "CUACUUCAAACAAGCGGUUUG [Fam1A.1 aminoacylation ribozyme variant]",
    "self-aminoacylation": 0.559
  },
  {
    "Sequence entry": "AAUUUUGCUAAUAGUCGCAAC [Fam3.1 aminoacylation ribozyme variant]",
    "self-aminoacylation": 1.95
  },
  {
    "Sequence entry": "AAGCUUGCCAAUAGUCGCAAG [Fam3.1 aminoacylation ribozyme variant]",
    "self-aminoacylation": 3.62
  },
  {
    "Sequence entry": "CUUCUUAAAACAAUCGGUCUG [Fam1A.1 aminoacylation ribozyme variant]",
    "self-aminoacylation": 0.564
  },
  {
    "Sequence entry": "AUUAACCUGGUCAUCGCGUGA [Fam2.1 aminoacylation ribozyme variant]",
    "self-aminoacylation": 21.5
  },
  {
    "Sequence entry": "CUACGUCAAAAAAUCGGUCUG [Fam1A.1 aminoacylation ribozyme variant]",
    "self-aminoacylation": 2.35
  },
  {
    "Sequence entry": "CUACUUCAAAGAAUCGGACUG [Fam1A.1 aminoacylation ribozyme variant]",
    "self-aminoacylation": 0.932
  },
  {
    "Sequence entry": "AGGCUUGCUAAUAGUCGCAAG [Fam3.1 aminoacylation ribozyme variant]",
    "self-aminoacylation": 2.08
  },
  {
    "Sequence entry": "AAGUUUGCCAAUUGUCGCAAG [Fam3.1 aminoacylation ribozyme variant]",
    "self-aminoacylation": 2.15
  },
  {
    "Sequence entry": "AUUCACCUGAGUCAUCGGGUG [Fam2.2 aminoacylation ribozyme variant]",
    "self-aminoacylation": 9.59
  },
  {
    "Sequence entry": "AUUACGCUGGUCAUCGAGUAA [Fam2.1 aminoacylation ribozyme variant]",
    "self-aminoacylation": 1.8
  },
  {
    "Sequence entry": "AUUACCGUGGUCAUCGAGAGA [Fam2.1 aminoacylation ribozyme variant]",
    "self-aminoacylation": 0.794
  },
  {
    "Sequence entry": "AUUACCCUAGUCACCGAGUGA [Fam2.1 aminoacylation ribozyme variant]",
    "self-aminoacylation": 7.33
  },
  {
    "Sequence entry": "AAGUUUGCUACUAGUCUCAAG [Fam3.1 aminoacylation ribozyme variant]",
    "self-aminoacylation": 0.988
  },
  {
    "Sequence entry": "CCACUUCAAACAAUCAGUCUG [Fam1A.1 aminoacylation ribozyme variant]",
    "self-aminoacylation": 10.1
  },
  {
    "Sequence entry": "AUUACACUGGUCAUCGAGUGU [Fam2.1 aminoacylation ribozyme variant]",
    "self-aminoacylation": 3.07
  },
  {
    "Sequence entry": "AUUACCCAUGUCAUCGAGUGA [Fam2.1 aminoacylation ribozyme variant]",
    "self-aminoacylation": 9.9
  }
]
